# PROTOCOL_DESCRIPTION: Toxicity liver stage against HepG2, at 10uM
# Assay type: cell-based
# Set-up: test concentration 10 uM, cell line HepG2-A16-CD81EGFP
# CONDITION_DETAILS: human, HepG2-A16-CD81EGFP cells; read-out: INHIBITION
MEASURE: cytotoxicity at 10 µM (%)
Numbers only here, please. The scale is %.

MOLECULE: CCOCC1CN(S(C)(=O)=O)Cc2cnn(CC3CCOCC3)c21 (configuration not stated)
VALUE_UNIT: %
EXPERIMENTAL_RESULT: -0.851

MOLECULE: CC(C)Cc1cc(C(=O)N2CCCN(c3ncccn3)CC2)[nH]n1
VALUE_UNIT: %
EXPERIMENTAL_RESULT: 4.57

MOLECULE: CN(Cc1cc(Br)cs1)Cc1nnsc1Cl
VALUE_UNIT: %
EXPERIMENTAL_RESULT: -7.38

Asked: Give cytotoxicity at 10 µM for the following molecule: COC(C)c1noc(CN(C)c2ncc(Br)cn2)n1 (configuration not stated)
Given back: -1.26

Asked: Give cytotoxicity at 10 µM for the following molecule: CCC(C(=O)NCc1noc(Cc2cccs2)n1)n1cccn1 (configuration not stated)
Given back: -1.91

Asked: Give cytotoxicity at 10 µM for the following molecule: CC(C)N1CCCC(CNC(=O)CN(C)S(=O)(=O)c2ccccc2)C1 (configuration not stated)
Given back: -3.88

Asked: Give cytotoxicity at 10 µM for the following molecule: COCCN1CC(c2cc(O)nc(NC(C)C)n2)CC1=O (configuration not stated)
Given back: -39.7
